- experimental target: recombinant rat homomeric GluK3 (Rattus norvegicus)
- Sequence (P42264 32-919): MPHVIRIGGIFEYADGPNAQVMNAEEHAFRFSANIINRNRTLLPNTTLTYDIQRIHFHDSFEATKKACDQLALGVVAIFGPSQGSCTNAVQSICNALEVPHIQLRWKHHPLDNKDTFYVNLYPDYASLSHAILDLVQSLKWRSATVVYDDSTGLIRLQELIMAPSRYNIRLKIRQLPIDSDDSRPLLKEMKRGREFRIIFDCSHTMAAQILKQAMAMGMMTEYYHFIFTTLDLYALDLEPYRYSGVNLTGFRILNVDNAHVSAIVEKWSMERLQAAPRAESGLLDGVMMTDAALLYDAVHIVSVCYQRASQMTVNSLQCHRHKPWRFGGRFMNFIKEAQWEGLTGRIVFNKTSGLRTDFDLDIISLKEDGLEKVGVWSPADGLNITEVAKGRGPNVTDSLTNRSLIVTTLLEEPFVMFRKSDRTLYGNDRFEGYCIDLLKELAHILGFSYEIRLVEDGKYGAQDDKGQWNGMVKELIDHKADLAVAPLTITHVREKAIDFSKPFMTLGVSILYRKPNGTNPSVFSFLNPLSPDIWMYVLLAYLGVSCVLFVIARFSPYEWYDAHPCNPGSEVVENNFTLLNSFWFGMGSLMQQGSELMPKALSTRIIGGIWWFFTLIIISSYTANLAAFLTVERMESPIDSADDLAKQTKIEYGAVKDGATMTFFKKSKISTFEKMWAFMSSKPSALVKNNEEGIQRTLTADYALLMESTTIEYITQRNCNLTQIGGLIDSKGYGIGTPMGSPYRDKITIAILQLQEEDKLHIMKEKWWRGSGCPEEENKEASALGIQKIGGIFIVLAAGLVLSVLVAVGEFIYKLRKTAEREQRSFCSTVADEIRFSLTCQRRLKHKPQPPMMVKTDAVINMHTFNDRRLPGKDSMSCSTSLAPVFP
- protocol details: Binding affinity at cloned homomeric GluK3 expressed in sf9 cells, [3H]-KA
- measurement conditions: Ki GluK3, cloned homomeric receptor; mean ± SEM, at least three experiments
parameter: pKi
The meaning of pKi here: minus log10 of the concentration in molar units.

Past entries and their recorded results:
[
  {
    "compound": "Cl.O=C(O)C(Cc1c[nH]nn1)[C@@H]1CCN[C@H]1C(=O)O (mixture of isomers) [3p]",
    "pKi": 5.51
  },
  {
    "compound": "O=C([O-])C(CCO)[C@@H]1CCN[C@H]1C(=O)[O-].[Na+].[Na+] (relative stereo) [3n]",
    "pKi": 4.28
  },
  {
    "compound": "Cl.O=C(O)CC(C(=O)O)[C@@H]1CCN[C@H]1C(=O)O (relative stereo) [3l]",
    "pKi": 5.19
  },
  {
    "compound": "Cl.O=C(O)C(CCc1ccccc1)[C@@H]1CCN[C@H]1C(=O)O (relative stereo) [3h]",
    "pKi": 4.07
  }
]

Lookup result for Cl.O=C(O)C(Cc1ccccc1)[C@@H]1CCN[C@H]1C(=O)O (relative stereo) [3g] ; measured pKi: 5.27

pKi for Cl.O=C(O)C(Cc1c[nH]nn1)[C@@H]1CCN[C@H]1C(=O)O (stereo partly shown) [3p-d2] is 5.57

Noted for Cl.O=C(O)C(Cc1c[nH]nn1)[C@@H]1CCN[C@H]1C(=O)O (stereo partly shown) [3p-d1] : its pKi reads 5.18

====

- experimental target: native KA receptors
- protocol details: Binding affinity at native KA receptors, [3H]-KA, rat cortical synaptosomes
- measurement conditions: native iGluRs, mean of at least three experiments
Parameter: IC50 KA. Scope: all listed entries.

Here is how some molecules turned out for IC50 KA.
[
  {
    "molecule": "Cl.Cl.NC(C(=O)O)[C@@H]1CCN[C@H]1C(=O)O (relative stereo)",
    "IC50 KA": ">100 µM"
  },
  {
    "molecule": "Cl.O=C(O)C(Cc1c[nH]nn1)[C@@H]1CCN[C@H]1C(=O)O (mixture of isomers) [3p]",
    "IC50 KA": "59 µM"
  },
  {
    "molecule": "CC[C@H](C(=O)O)[C@H]1CCN[C@@H]1C(=O)O.Cl",
    "IC50 KA": ">100 µM"
  },
  {
    "molecule": "Cl.O=C(O)[C@H]1NCC[C@@H]1[C@@H](C(=O)O)c1ccccc1",
    "IC50 KA": ">100 µM"
  }
]

Consider now this further molecule.
For reference, reported IC50 KA for CCCC(C(=O)O)[C@@H]1CCN[C@H]1C(=O)O.Cl (relative stereo) stands at >100 µM

====

Examples of compounds with documented pIC50 follow.
- experimental target: human EAAT3 (Homo sapiens)
- Sequence (P43005 whole entry): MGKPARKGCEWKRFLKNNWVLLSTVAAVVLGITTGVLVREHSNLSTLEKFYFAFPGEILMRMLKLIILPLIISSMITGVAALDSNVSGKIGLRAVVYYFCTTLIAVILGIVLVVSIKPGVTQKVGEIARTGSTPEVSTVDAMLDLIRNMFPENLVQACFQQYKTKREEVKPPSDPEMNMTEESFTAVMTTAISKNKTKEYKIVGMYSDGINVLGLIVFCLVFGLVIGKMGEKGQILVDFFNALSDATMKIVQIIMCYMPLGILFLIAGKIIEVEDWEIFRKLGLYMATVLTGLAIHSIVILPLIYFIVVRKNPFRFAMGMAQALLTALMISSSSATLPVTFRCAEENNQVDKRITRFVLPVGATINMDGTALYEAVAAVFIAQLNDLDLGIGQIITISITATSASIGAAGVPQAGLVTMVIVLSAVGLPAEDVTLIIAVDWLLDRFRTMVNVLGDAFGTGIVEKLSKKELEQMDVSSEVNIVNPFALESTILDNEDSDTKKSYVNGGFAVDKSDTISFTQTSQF
- protocol details: [3H]-D-Asp uptake assay, EAAT3 stably expressed in HEK293 cells
- Format: cell-based
pIC50: −log10 of the molar value.

Answered examples (4):
[
  {
    "compound": "COC(C(=O)O)[C@@H]1CCN[C@H]1C(=O)O.Cl (relative stereo) [3j-d1]",
    "pIC50": "< 3.00"
  },
  {
    "compound": "CC(C)C(C(=O)O)[C@@H]1CCN[C@H]1C(=O)O.Cl (relative stereo) [3f]",
    "pIC50": 4.45
  },
  {
    "compound": "Cl.Cl.NC(C(=O)O)[C@@H]1CCN[C@H]1C(=O)O (relative stereo) [3k]",
    "pIC50": "< 3.52"
  },
  {
    "compound": "Cl.O=C(O)[C@H]1NCC[C@@H]1[C@H](C(=O)O)c1ccccc1 [3d-s2]",
    "pIC50": "< 3.52"
  }
]

# next compound below
Lab note: Cl.O=C(O)[C@H]1NCC[C@@H]1[C@@H](C(=O)O)c1ccccc1 [3d-s1] gave pIC50 of < 3.52
